SUBJECT OF TEST: UniProt P33261
Sequence (P33261 whole entry): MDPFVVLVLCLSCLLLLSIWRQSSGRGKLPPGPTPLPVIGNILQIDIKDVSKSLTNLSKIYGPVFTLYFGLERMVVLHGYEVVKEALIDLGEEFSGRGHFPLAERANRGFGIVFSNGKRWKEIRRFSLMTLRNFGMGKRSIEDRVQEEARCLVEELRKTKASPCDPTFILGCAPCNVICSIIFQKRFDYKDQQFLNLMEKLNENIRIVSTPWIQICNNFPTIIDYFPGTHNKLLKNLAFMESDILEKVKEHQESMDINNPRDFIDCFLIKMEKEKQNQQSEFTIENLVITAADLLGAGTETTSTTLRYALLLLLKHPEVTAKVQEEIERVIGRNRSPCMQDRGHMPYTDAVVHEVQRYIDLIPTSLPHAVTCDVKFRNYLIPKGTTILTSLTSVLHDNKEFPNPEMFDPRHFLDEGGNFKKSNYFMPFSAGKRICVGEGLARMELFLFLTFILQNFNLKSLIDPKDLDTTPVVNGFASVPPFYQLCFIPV
PROCEDURE DETAILS: Inhibition of recombinant CYP2C19
Type: ADME
pIC50: −log10 of the molar value.
VALUE TYPE: pIC50

{"CHEMICAL STRING": "O=C1Nc2ccccc2C2(CCN(C(=O)N[C@H](Cc3csc4ccccc34)C(=O)N3CCC(N4CCCCC4)CC3)CC2)N1", "ENDPOINT RESULT": "< 4.40"}

* * *

PROCEDURE DETAILS: Metabolic stability of the compound in human liver microsomes assessed as compound remaining at 3 uM after 10 mins
Assay type: ADME, Microsome
SETTINGS: read-out: Stability

{"CHEMICAL STRING": "O=C1Nc2ccccc2C2(CCN(C(=O)N[C@H](Cc3csc4ccccc34)C(=O)N3CCC(N4CCCCC4)CC3)CC2)N1", "remaining at 10 min, 3 µM [%]": 82}
